- assay: Stability test of crystal forms spread flat in the air under lighting, heating and high humidity (HPLC purity, XRPD)
- Format: physicochemical
- measurement conditions: high humidity RH 90%, spread flat in the air, Day 0
experimental endpoint: purity as detected by HPLC, RH 90% (%)

compound: CONC(=O)Nc1ccc(-n2nc3c(c2CN(C)C)c(=O)n(-c2ccc(OC)nn2)c(=O)n3Cc2c(F)cccc2F)cc1 [Crystal form I]
purity as detected by HPLC, RH 90% (%): 99.36

compound: CONC(=O)Nc1ccc(-n2nc3c(c2CN(C)C)c(=O)n(-c2ccc(OC)nn2)c(=O)n3Cc2c(F)cccc2F)cc1 [Crystal form C]
purity as detected by HPLC, RH 90% (%): 99.75

compound: CONC(=O)Nc1ccc(-n2nc3c(c2CN(C)C)c(=O)n(-c2ccc(OC)nn2)c(=O)n3Cc2c(F)cccc2F)cc1 [Crystal form D]
purity as detected by HPLC, RH 90% (%): 99.67

compound: CONC(=O)Nc1ccc(-n2nc3c(c2CN(C)C)c(=O)n(-c2ccc(OC)nn2)c(=O)n3Cc2c(F)cccc2F)cc1 [Crystal form B]
purity as detected by HPLC, RH 90% (%): 99.69

compound: CONC(=O)Nc1ccc(-n2nc3c(c2CN(C)C)c(=O)n(-c2ccc(OC)nn2)c(=O)n3Cc2c(F)cccc2F)cc1 [Crystal form A]
purity as detected by HPLC, RH 90% (%): 97.86

----------
- assay: Stability test of crystal forms spread flat in the air under lighting, heating and high humidity (HPLC purity, XRPD)
- Format: physicochemical
- measurement conditions: heating 40° C., spread flat in the air, Day 5
experimental endpoint: purity as detected by HPLC, 40° C. (%)

compound: CONC(=O)Nc1ccc(-n2nc3c(c2CN(C)C)c(=O)n(-c2ccc(OC)nn2)c(=O)n3Cc2c(F)cccc2F)cc1 [Crystal form D]
recorded result: 99.44
--
compound: CONC(=O)Nc1ccc(-n2nc3c(c2CN(C)C)c(=O)n(-c2ccc(OC)nn2)c(=O)n3Cc2c(F)cccc2F)cc1 [Crystal form C]
recorded result: 99.57
--
compound: CONC(=O)Nc1ccc(-n2nc3c(c2CN(C)C)c(=O)n(-c2ccc(OC)nn2)c(=O)n3Cc2c(F)cccc2F)cc1 [Crystal form A]
recorded result: 97.50
--
compound: CONC(=O)Nc1ccc(-n2nc3c(c2CN(C)C)c(=O)n(-c2ccc(OC)nn2)c(=O)n3Cc2c(F)cccc2F)cc1 [Crystal form I]
recorded result: 99.33
--
compound: CONC(=O)Nc1ccc(-n2nc3c(c2CN(C)C)c(=O)n(-c2ccc(OC)nn2)c(=O)n3Cc2c(F)cccc2F)cc1 [Crystal form B]
recorded result: 99.45

----------
- assay: Stability test of crystal forms spread flat in the air under lighting, heating and high humidity (HPLC purity, XRPD)
- Format: physicochemical
- measurement conditions: lighting (4500 Lux), spread flat in the air, Day 10
experimental endpoint: purity as detected by HPLC, Lighting (%)

compound: CONC(=O)Nc1ccc(-n2nc3c(c2CN(C)C)c(=O)n(-c2ccc(OC)nn2)c(=O)n3Cc2c(F)cccc2F)cc1 [Crystal form D]
purity as detected by HPLC, Lighting [%]: 99.22

compound: CONC(=O)Nc1ccc(-n2nc3c(c2CN(C)C)c(=O)n(-c2ccc(OC)nn2)c(=O)n3Cc2c(F)cccc2F)cc1 [Crystal form A]
purity as detected by HPLC, Lighting [%]: 97.13

compound: CONC(=O)Nc1ccc(-n2nc3c(c2CN(C)C)c(=O)n(-c2ccc(OC)nn2)c(=O)n3Cc2c(F)cccc2F)cc1 [Crystal form C]
purity as detected by HPLC, Lighting [%]: 96.83

compound: CONC(=O)Nc1ccc(-n2nc3c(c2CN(C)C)c(=O)n(-c2ccc(OC)nn2)c(=O)n3Cc2c(F)cccc2F)cc1 [Crystal form I]
purity as detected by HPLC, Lighting [%]: 99.20

compound: CONC(=O)Nc1ccc(-n2nc3c(c2CN(C)C)c(=O)n(-c2ccc(OC)nn2)c(=O)n3Cc2c(F)cccc2F)cc1 [Crystal form B]
purity as detected by HPLC, Lighting [%]: 99.19

----------
- assay: Stability test of crystal forms spread flat in the air under lighting, heating and high humidity (HPLC purity, XRPD)
- Format: physicochemical
- measurement conditions: high humidity RH 75%, spread flat in the air, Day 10
experimental endpoint: purity as detected by HPLC, RH 75% (%)

compound: CONC(=O)Nc1ccc(-n2nc3c(c2CN(C)C)c(=O)n(-c2ccc(OC)nn2)c(=O)n3Cc2c(F)cccc2F)cc1 [Crystal form C]
experimental endpoint: purity as detected by HPLC, RH 75%
recorded result: 99.48
//
compound: CONC(=O)Nc1ccc(-n2nc3c(c2CN(C)C)c(=O)n(-c2ccc(OC)nn2)c(=O)n3Cc2c(F)cccc2F)cc1 [Crystal form I]
experimental endpoint: purity as detected by HPLC, RH 75%
recorded result: 99.31
//
compound: CONC(=O)Nc1ccc(-n2nc3c(c2CN(C)C)c(=O)n(-c2ccc(OC)nn2)c(=O)n3Cc2c(F)cccc2F)cc1 [Crystal form A]
experimental endpoint: purity as detected by HPLC, RH 75%
recorded result: 97.65
//
compound: CONC(=O)Nc1ccc(-n2nc3c(c2CN(C)C)c(=O)n(-c2ccc(OC)nn2)c(=O)n3Cc2c(F)cccc2F)cc1 [Crystal form D]
experimental endpoint: purity as detected by HPLC, RH 75%
recorded result: 99.34
//
compound: CONC(=O)Nc1ccc(-n2nc3c(c2CN(C)C)c(=O)n(-c2ccc(OC)nn2)c(=O)n3Cc2c(F)cccc2F)cc1 [Crystal form B]
experimental endpoint: purity as detected by HPLC, RH 75%
recorded result: 99.34

----------
- assay: Stability test of crystal forms spread flat in the air under lighting, heating and high humidity (HPLC purity, XRPD)
- Assay type: physicochemical
- measurement conditions: high humidity RH 75%, spread flat in the air, Day 0
- Description: The product sample of crystal form I prepared in Example 1 and the product samples of crystal forms A, B, C and D prepared in Examples 12, 13, 14 and 15 were spread flat in the air to test sample stability under conditions of lighting (4500 Lux), heating (40° C., 60° C.), and high humidity (RH 75%, RH 90%). Samplings were carried out on Day 5 and Day 10.
experimental endpoint: purity as detected by HPLC, RH 75% (%)

compound: CONC(=O)Nc1ccc(-n2nc3c(c2CN(C)C)c(=O)n(-c2ccc(OC)nn2)c(=O)n3Cc2c(F)cccc2F)cc1 [Crystal form A]
purity as detected by HPLC, RH 75% (%): 97.86
--
compound: CONC(=O)Nc1ccc(-n2nc3c(c2CN(C)C)c(=O)n(-c2ccc(OC)nn2)c(=O)n3Cc2c(F)cccc2F)cc1 [Crystal form B]
purity as detected by HPLC, RH 75% (%): 99.69
--
compound: CONC(=O)Nc1ccc(-n2nc3c(c2CN(C)C)c(=O)n(-c2ccc(OC)nn2)c(=O)n3Cc2c(F)cccc2F)cc1 [Crystal form C]
purity as detected by HPLC, RH 75% (%): 99.75
--
compound: CONC(=O)Nc1ccc(-n2nc3c(c2CN(C)C)c(=O)n(-c2ccc(OC)nn2)c(=O)n3Cc2c(F)cccc2F)cc1 [Crystal form D]
purity as detected by HPLC, RH 75% (%): 99.67
--
compound: CONC(=O)Nc1ccc(-n2nc3c(c2CN(C)C)c(=O)n(-c2ccc(OC)nn2)c(=O)n3Cc2c(F)cccc2F)cc1 [Crystal form I]
purity as detected by HPLC, RH 75% (%): 99.36

----------
- assay: Stability test of crystal forms spread flat in the air under lighting, heating and high humidity (HPLC purity, XRPD)
- Assay type: physicochemical
- measurement conditions: heating 60° C., spread flat in the air, Day 10
experimental endpoint: purity as detected by HPLC, 60° C. (%)

compound: CONC(=O)Nc1ccc(-n2nc3c(c2CN(C)C)c(=O)n(-c2ccc(OC)nn2)c(=O)n3Cc2c(F)cccc2F)cc1 [Crystal form D]
result unit: %
purity as detected by HPLC, 60° C.: 99.40
//
compound: CONC(=O)Nc1ccc(-n2nc3c(c2CN(C)C)c(=O)n(-c2ccc(OC)nn2)c(=O)n3Cc2c(F)cccc2F)cc1 [Crystal form A]
result unit: %
purity as detected by HPLC, 60° C.: 97.50
//
compound: CONC(=O)Nc1ccc(-n2nc3c(c2CN(C)C)c(=O)n(-c2ccc(OC)nn2)c(=O)n3Cc2c(F)cccc2F)cc1 [Crystal form B]
result unit: %
purity as detected by HPLC, 60° C.: 99.34
//
compound: CONC(=O)Nc1ccc(-n2nc3c(c2CN(C)C)c(=O)n(-c2ccc(OC)nn2)c(=O)n3Cc2c(F)cccc2F)cc1 [Crystal form I]
result unit: %
purity as detected by HPLC, 60° C.: 99.30
//
compound: CONC(=O)Nc1ccc(-n2nc3c(c2CN(C)C)c(=O)n(-c2ccc(OC)nn2)c(=O)n3Cc2c(F)cccc2F)cc1 [Crystal form C]
result unit: %
purity as detected by HPLC, 60° C.: 99.47
